Overview of recorded MIC for various compounds
System: Candida albicans
Assay details: In vitro antifungal activity against Candida albicans, MIC by twofold micro-broth dilution (Test Example 3)
Format: cell-based
Particulars: TIMM3166, strain TIMM 3166, 80% inhibition, 48 hours at 35° C., pH 7.0, read-out: MIC
Observed property: MIC (mg/L)

[[record]]
compound = "N#C/C(=C1/SC[C@@H](c2ccccc2Cl)S1)n1ccnc1 [Compound (A)]"
censor_symbol = "="
experimental_result = 1

[[record]]
compound = "N#C/C(=C1/SC[C@@H](c2ccc(Cl)cc2Cl)S1)n1ccnc1 [Compound (B)]"
censor_symbol = "="
experimental_result = 1

[[record]]
compound = "CN(C/C=C/C#CC(C)(C)C)Cc1cccc2ccccc12 [TBF]"
censor_symbol = ">"
experimental_result = 32

[[record]]
compound = "N#C/C(=C1/SCC(c2ccccc2Cl)S1)n1ccnc1 (racemic) [Racemic Compound (A)]"
censor_symbol = "="
experimental_result = 2


====

Tested on: Trichophyton rubrum
Assay details: In vitro activity against Trichophyton rubrum, MIC by twofold macro-broth dilution (Test Example 1)
Type: cell-based
Particulars: IFO5807, 168 h, strain IFO 5807, 7 days at 27° C.
Observed property: MIC (ng/mL)

[[record]]
compound = "N#C/C(=C1/SCC(c2ccccc2Cl)S1)n1ccnc1 (racemic) [Racemic Compound (A)]"
target_under_test = "Trichophyton rubrum"
experimental_result = 10

[[record]]
compound = "N#C/C(=C1/SC[C@@H](c2ccccc2Cl)S1)n1ccnc1 [Compound (A)]"
target_under_test = "Trichophyton rubrum"
experimental_result = 2.5

[[record]]
compound = "N#C/C(=C1/SC[C@@H](c2ccc(Cl)cc2Cl)S1)n1ccnc1 [Compound (B)]"
target_under_test = "Trichophyton rubrum"
experimental_result = 2.5

[[record]]
compound = "CN(C/C=C/C#CC(C)(C)C)Cc1cccc2ccccc12 [TBF]"
target_under_test = "Trichophyton rubrum"
experimental_result = 5


====

Overview of recorded MIC for various molecules
System: Candida albicans
Assay details: In vitro antifungal activity against Candida albicans, MIC by twofold micro-broth dilution (Test Example 3)
Type: cell-based
Particulars: IFO0197, strain IFO 0197, 80% inhibition, 48 hours at 35° C., pH 7.0, read-out: MIC
Observed property: MIC (µg/mL)

[[record]]
molecule = "N#C/C(=C1/SCC(c2ccccc2Cl)S1)n1ccnc1 (racemic) [Racemic Compound (A)]"
target_under_test = "Candida albicans"
censor_symbol = "="
experimental_result = 0.25

[[record]]
molecule = "N#C/C(=C1/SC[C@@H](c2ccc(Cl)cc2Cl)S1)n1ccnc1 [Compound (B)]"
target_under_test = "Candida albicans"
censor_symbol = "="
experimental_result = 0.0625

[[record]]
molecule = "CN(C/C=C/C#CC(C)(C)C)Cc1cccc2ccccc12 [TBF]"
target_under_test = "Candida albicans"
censor_symbol = ">"
experimental_result = 32

[[record]]
molecule = "N#C/C(=C1/SC[C@@H](c2ccccc2Cl)S1)n1ccnc1 [Compound (A)]"
target_under_test = "Candida albicans"
censor_symbol = "="
experimental_result = 0.0625


====

Overview of recorded MIC for various compounds
Tested on: Trichophyton mentagrophytes
Assay details: In vitro activity against Trichophyton mentagrophytes, MIC by twofold macro-broth dilution (Test Example 1)
Assay type: cell-based
Particulars: Trichophyton mentagrophytes, TIMM1814, 168 h; strain TIMM 1814; 7 days at 27° C.
Observed property: MIC (µg/mL)

[[record]]
compound = "N#C/C(=C1/SC[C@@H](c2ccccc2Cl)S1)n1ccnc1"
experimental_result = 0.02

[[record]]
compound = "N#C/C(=C1/SC[C@@H](c2ccc(Cl)cc2Cl)S1)n1ccnc1"
experimental_result = 0.02

[[record]]
compound = "N#C/C(=C1/SCC(c2ccccc2Cl)S1)n1ccnc1 (racemic) [Racemic Compound (A)]"
experimental_result = 0.04

[[record]]
compound = "CN(C/C=C/C#CC(C)(C)C)Cc1cccc2ccccc12"
experimental_result = 0.01

